Please go through the items and note down their clearance.
Assay: Total clearance in rat plasma at 10 mg/kg
Format: ADME, organism-based
Form entry: value (mL/min/kg) — number only.

Record Nc1nccn2c([C@H]3CN(C4CCOCC4)CCO3)nc(-c3ccc(C(=O)Nc4cc(C(F)(F)F)ccn4)cc3F)c12 . Reported clearance: 23

Field clearance (entry COCC(=O)N1CCO[C@@H](c2nc(-c3ccc(C(=O)Nc4cc(C(F)(F)F)ccn4)cc3F)c3c(N)nccn23)C1 ) reads 8.2

Summary for this compound, CC(C)C(=O)N1CCO[C@@H](c2nc(-c3ccc(C(=O)Nc4cc(C(F)(F)F)ccn4)cc3F)c3c(N)nccn23)C1 : clearance is 1.4

Reported clearance of C[C@H]1CO[C@@H](c2nc(-c3ccc(C(=O)Nc4cc(C(F)(F)F)ccn4)cc3F)c3c(N)nccn23)CN1C(=O)C1CC1 : 4.2

* * *

Please consider the recorded IC50 for Tyrosine-protein kinase Lck (Homo sapiens, UniProt P06239) in what follows.
The answer should read as a number with its unit following.

For this compound ( Nc1nccn2c([C@H]3CN(C4CCOCC4)CCO3)nc(-c3ccc(C(=O)Nc4cc(C(F)(F)F)ccn4)cc3F)c12 ), measured IC50 is 0.021 µM

Reported IC50 for COCC(=O)N1CCO[C@@H](c2nc(-c3ccc(C(=O)Nc4cc(C(F)(F)F)ccn4)cc3F)c3c(N)nccn23)C1 was 0.028 µM

So, CC(C)C(=O)N1CCC[C@@H](c2nc(-c3ccc(C(=O)Nc4cc(C(F)(F)F)ccn4)cc3F)c3c(N)nccn23)C1 ? Its IC50 was 0.074 µM

* * *

For each of the compounds below, state its bioavailability.
Experiment: Oral bioavailability in rat at 10 mg/kg
Format: ADME, organism-based
Settings: in vivo
Your answer is read as %, so omit the unit and give the number.

// sample COCC(=O)N1CCO[C@@H](c2nc(-c3ccc(C(=O)Nc4cc(C(F)(F)F)ccn4)cc3F)c3c(N)nccn23)C1 , its bioavailability was 42

CC(C)C(=O)N1CCO[C@@H](c2nc(-c3ccc(C(=O)Nc4cc(C(F)(F)F)ccn4)cc3F)c3c(N)nccn23)C1 yielded bioavailability of 87

Kindly note the recorded bioavailability for Nc1nccn2c([C@H]3CN(C4CCOCC4)CCO3)nc(-c3ccc(C(=O)Nc4cc(C(F)(F)F)ccn4)cc3F)c12 , which is 75

# bioavailability of C[C@H]1CO[C@@H](c2nc(-c3ccc(C(=O)Nc4cc(C(F)(F)F)ccn4)cc3F)c3c(N)nccn23)CN1C(=O)C1CC1 = 40

* * *

Target: Tyrosine-protein kinase Srms (Homo sapiens, UniProt Q9H3Y6)
Sequence (Q9H3Y6 whole entry): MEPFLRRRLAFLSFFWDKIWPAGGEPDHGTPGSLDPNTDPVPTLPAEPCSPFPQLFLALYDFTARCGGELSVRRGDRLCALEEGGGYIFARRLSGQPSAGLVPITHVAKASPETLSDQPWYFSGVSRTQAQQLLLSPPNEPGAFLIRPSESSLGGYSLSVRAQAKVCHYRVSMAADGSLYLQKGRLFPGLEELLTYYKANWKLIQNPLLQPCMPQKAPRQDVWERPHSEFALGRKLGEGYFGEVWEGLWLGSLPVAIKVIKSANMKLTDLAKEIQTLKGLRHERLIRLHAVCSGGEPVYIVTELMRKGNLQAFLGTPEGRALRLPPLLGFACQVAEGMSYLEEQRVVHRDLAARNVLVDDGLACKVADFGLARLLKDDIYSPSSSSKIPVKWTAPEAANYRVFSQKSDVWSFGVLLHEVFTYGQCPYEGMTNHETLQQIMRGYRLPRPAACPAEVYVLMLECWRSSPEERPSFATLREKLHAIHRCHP
Returns: string. Value is 1 if measured IC50 is below 80 nM, and -1 if it is greater than or equal to it.

input: Is IC50 strictly under 80 nM for the entry CC(C)C(=O)N1CCC[C@@H](c2nc(-c3ccc(C(=O)Nc4cc(C(F)(F)F)ccn4)cc3F)c3c(N)nccn23)C1 ?
output: -1

input: Check if IC50 falls below 80 nM for Nc1nccn2c([C@H]3CN(C4CCOCC4)CCO3)nc(-c3ccc(C(=O)Nc4cc(C(F)(F)F)ccn4)cc3F)c12 .
output: 1

input: In plain terms, does COCC(=O)N1CCC[C@@H](c2nc(-c3ccc(C(=O)Nc4cc(C(F)(F)F)ccn4)cc3F)c3c(N)nccn23)C1 come in under 80 nM for IC50?
output: 1

input: Lab note: IC50 threshold 80 nM. Does this molecule come in strictly under it? COCC(=O)N1CCO[C@@H](c2nc(-c3ccc(C(=O)Nc4cc(C(F)(F)F)ccn4)cc3F)c3c(N)nccn23)C1
output: 1

input: Item Nc1nccn2c([C@@H]3CCCN(C4CCOCC4)C3)nc(-c3ccc(C(=O)Nc4cc(C(F)(F)F)ccn4)cc3F)c12 : IC50 beneath 80 nM, strictly?
output: 1
